All figures here come from patent US20250250357A1.

target system: T1, human MSLN-FL-his protein (human, UniProt Q13421 296-580)
T1 construct: Made in HEK293E cells, purified on nickel column; also called hMSLN-FL-his; human MSLN full-length protein; not shown: His tag
T1 sequence (Q13421 other isoform, or with tags, fused parts or gaps): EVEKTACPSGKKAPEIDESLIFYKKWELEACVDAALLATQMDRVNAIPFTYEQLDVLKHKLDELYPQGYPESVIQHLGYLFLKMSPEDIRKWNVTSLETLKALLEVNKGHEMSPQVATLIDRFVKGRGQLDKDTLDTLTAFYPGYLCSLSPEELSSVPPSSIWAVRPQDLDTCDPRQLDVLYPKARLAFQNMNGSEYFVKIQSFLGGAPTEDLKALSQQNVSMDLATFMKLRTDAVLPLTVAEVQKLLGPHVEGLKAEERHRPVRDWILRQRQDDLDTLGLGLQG
method: ELISA, coated antigen, antibody 200 nM
value kind: OD450
Write no unit; give the number alone.

Use these answered entries as a reference point.
S009-F7.11.11 chimeric antibody (antibody, human IgG1, kappa, V domains shown, Human-murine chimeric antibody, human IgG1/kappa constant regions) VH: EVQLQQSGPELVKPGASVKIPCKASGYTITDYNMDWVKQSRGKSLEWIGDVFPYNGDSIYNQKFEGRATLTVDKYSSTAYMELRGLTSEDTAVYFCARRKTGTGYFDVWGTGTTVTVSS VL: QLVLTQSPAIMSASPGEKVTLTCSASSSVSSTYLSWYLQKPGSSPKLWIYSTSNLASGVPARFSGSGSGTSYSLTISSMEAEDAASYFCHQWSSYPYTFGGGTKLEIKR: 2.62
S009-F7.65.13 chimeric antibody (antibody, human IgG1, kappa, V domains shown, Human-murine chimeric antibody, human IgG1/kappa constant regions) VH: EVQLQQSGPELVKPGTSVKILCKASGDTFTAYNMDWVKQRHGQSLEWIGDINPNTDSTIYNQKFEGKAILTVDKSSSTAYMELRSLTSEDTAVYYCARRKLGRGYFDYWGQGTTLTVSS VL: QIVLTQSPAIMSASPGEKVTMTCSVNLSVRYIYWYQQKPGSSPRLLIHDTSNLASGVPVRFSGSGSGTSYSLTISRMEAEDAATYYCQQWSSFPYTFGGGTKLEIKR: 2.13
S009-F7.21.16 chimeric antibody (antibody, human IgG1, kappa, V domains shown, Human-murine chimeric antibody, human IgG1/kappa constant regions) VH: QVQLQQPGTELVKPGASVKLSCKASGYTFTTFWMHWVKQRPGQGLEWIGGVNPTNGGTNYNEKFRTKATLTVDKSSTTADMQLSSLTSEDSAVYYCAPHYISSRPGFAYWGQGTLVTVSG VL: DIVMTQSQKFMSTSGGDRVSVTCKASQNVGTNVAWYQQKPGQSPKALIYSASYRYSGVPDRFTGSGSGTDFILTISNVQSEDLAEYFCQQYNSYPLTFGGGTKLEIKR: 2.42

stdin: # OD450 lookup, item S009-F7.67.12 chimeric antibody (antibody, human IgG1, kappa, V domains shown, Human-murine chimeric antibody, human IgG1/kappa constant regions) VH: QVQLQQPGTELVKPGASVRLSCRASGYSFSSYWMHWVKQRPGQGLEWLGNINPTTGDINYNEKFRNRATLAVDKSSTTAYLQLTSLTSEDSAVYFCVRHDGFLWGQGTTLTVSS VL: DIQMTQSPASLSASVGETVTITCRASENIYSYLAWYQQKQGKSPQLLVYYAKTLAEGVSSRFSGSGSGTQFSLKINSLQPEDFGTYYCQHQFGTPRTFGGGTKLEIRR
stdout: 1.96
